biological target: SARS-CoV-2 Mpro (Severe acute respiratory syndrome coronavirus 2, UniProt P0DTD1); experiment: SARS-CoV-2 Mpro activity assay (assay kit, fluorescence); assay type: biochemical; settings: serially diluted compounds 3.125–100 μM; mean ± SEM; read-out: IC50, SARS-CoV-2 Mpro (3CL) activity
readout type: pIC50
Formally, pIC50 is defined as -log10 of the concentration c, with c in mol/L.

Write down pIC50 measured for item `CCCC(=O)c1c(O)c(CC2=C(O)C(C)(C)C(O)=C(C(C)=O)C2=O)c(O)c(CC2=C(O)C(C)(C)C(O)=C(C(C)=O)C2=O)c1O`
4.40

---

assay: Pharmacokinetic study in mice; format: in vivo; conditions: male, ICR, mouse, plasma, po, 10 mg/kg, PO 10 mg/kg, n = 3, read-out: AUC
readout type: AUC

Name the recorded AUC of the compound listed here: `CCCC(=O)c1c(O)c(CC2=C(O)C(C)(C)C(O)=C(C(C)=O)C2=O)c(O)c(Cc2c(O)c(CC3=C(O)C(C)(C)C(O)=C(C(C)=O)C3=O)c(O)c(C(=O)CCC)c2O)c1O`
19300 ng·h/mL

---

test: Pharmacokinetic study in mice; assay type: in vivo; conditions: male, ICR, mouse, plasma, other: intraperitoneal and oral (range over both arms), 10 mg/kg, in vivo, span over IP and PO 10 mg/kg (abstract), read-out: plasma exposure (AUC)
readout type: AUC

Assign AUC to the following record: `CCCC(=O)c1c(O)c(CC2=C(O)C(C)(C)C(O)=C(C(C)=O)C2=O)c(O)c(Cc2c(O)c(CC3=C(O)C(C)(C)C(O)=C(C(C)=O)C3=O)c(O)c(C(=O)CCC)c2O)c1O`
19300 to 65000 ng·h/mL

---

target: hERG K+ channel (Homo sapiens); assay: hERG K+ channel automated planar patch clamp assay
Sequence (Q12809 whole entry): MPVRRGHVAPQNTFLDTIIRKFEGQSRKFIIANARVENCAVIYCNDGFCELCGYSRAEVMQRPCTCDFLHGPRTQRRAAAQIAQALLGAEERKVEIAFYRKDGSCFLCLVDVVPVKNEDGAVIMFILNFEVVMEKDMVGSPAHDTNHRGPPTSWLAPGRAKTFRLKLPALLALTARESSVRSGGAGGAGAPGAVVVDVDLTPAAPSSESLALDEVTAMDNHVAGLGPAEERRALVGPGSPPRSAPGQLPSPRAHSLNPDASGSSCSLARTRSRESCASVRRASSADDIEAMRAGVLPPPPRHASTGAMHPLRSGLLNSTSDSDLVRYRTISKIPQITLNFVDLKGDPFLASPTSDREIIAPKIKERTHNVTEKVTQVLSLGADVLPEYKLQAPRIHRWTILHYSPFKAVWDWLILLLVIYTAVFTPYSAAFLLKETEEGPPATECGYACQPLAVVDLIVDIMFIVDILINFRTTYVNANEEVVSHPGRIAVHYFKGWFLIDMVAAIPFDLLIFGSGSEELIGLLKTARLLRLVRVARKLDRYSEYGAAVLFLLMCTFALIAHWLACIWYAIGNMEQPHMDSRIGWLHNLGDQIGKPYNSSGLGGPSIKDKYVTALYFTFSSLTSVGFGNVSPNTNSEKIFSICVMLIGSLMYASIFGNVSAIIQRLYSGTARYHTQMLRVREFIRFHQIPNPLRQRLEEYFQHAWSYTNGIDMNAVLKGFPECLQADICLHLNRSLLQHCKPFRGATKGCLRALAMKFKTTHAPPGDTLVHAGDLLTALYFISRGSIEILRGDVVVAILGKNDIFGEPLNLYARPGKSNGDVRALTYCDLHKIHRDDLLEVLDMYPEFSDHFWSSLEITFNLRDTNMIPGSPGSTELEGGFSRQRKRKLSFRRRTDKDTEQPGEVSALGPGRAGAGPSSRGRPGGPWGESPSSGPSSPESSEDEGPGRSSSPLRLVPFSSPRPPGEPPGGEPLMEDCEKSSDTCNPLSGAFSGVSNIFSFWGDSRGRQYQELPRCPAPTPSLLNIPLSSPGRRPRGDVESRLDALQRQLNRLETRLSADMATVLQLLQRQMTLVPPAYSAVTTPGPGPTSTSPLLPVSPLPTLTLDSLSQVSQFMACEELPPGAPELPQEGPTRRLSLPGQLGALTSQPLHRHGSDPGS
readout type: inhibition at 10 µM (%)
Answer with a number only, understood to be in %.

Tell me inhibition at 10 µM reported for `CCCC(=O)c1c(O)c(CC2=C(O)C(C)(C)C(O)=C(C(C)=O)C2=O)c(O)c(Cc2c(O)c(CC3=C(O)C(C)(C)C(O)=C(C(C)=O)C3=O)c(O)c(C(=O)CCC)c2O)c1O`
7.27

---

experiment: Pharmacokinetic study in mice; type: in vivo; details: male, ICR, mouse, plasma, ip, 10 mg/kg, IP 10 mg/kg, n = 3, read-out: AUC
readout type: AUC (ng·h/mL)
Return type: number; implicit unit ng·h/mL.

Return value of AUC for input CCCC(=O)c1c(O)c(CC2=C(O)C(C)(C)C(O)=C(C(C)=O)C2=O)c(O)c(Cc2c(O)c(CC3=C(O)C(C)(C)C(O)=C(C(C)=O)C3=O)c(O)c(C(=O)CCC)c2O)c1O [dryocrassin ABBA, Dryocrassin ABBA] , no commentary.
65000

---

For each entry below, report its CC50 value.
experiment: in vitro; conditions: African green monkey

Please supply the value of reported CC50 for the item `CCCC(=O)c1c(O)c(CC2=C(O)C(C)(C)C(O)=C(C(C)=O)C2=O)c(O)c(Cc2c(O)c(CC3=C(O)C(C)(C)C(O)=C(C(C)=O)C3=O)c(O)c(C(=O)CCC)c2O)c1O`
> 50 µM

Please report CC50 for the following compound: `CCCC(=O)c1c(O)c(CC2=C(O)C(C)(C)C(O)=C(C(C)=O)C2=O)c(O)c(CC2=C(O)C(C)(C)C(O)=C(C(C)=O)C2=O)c1O`
> 50 µM
